molecular target: T1, human G-protein-coupled receptor family C group 5 member D (GPRC5D) (human, UniProt Q9NZD1 1-345); experiment: FACS, CHO-K1/human GPRC5D, chimeric antibody
T1 construct: whole, on cells; also called human GPRC5D protein
T1 sequence (Q9NZD1 whole entry): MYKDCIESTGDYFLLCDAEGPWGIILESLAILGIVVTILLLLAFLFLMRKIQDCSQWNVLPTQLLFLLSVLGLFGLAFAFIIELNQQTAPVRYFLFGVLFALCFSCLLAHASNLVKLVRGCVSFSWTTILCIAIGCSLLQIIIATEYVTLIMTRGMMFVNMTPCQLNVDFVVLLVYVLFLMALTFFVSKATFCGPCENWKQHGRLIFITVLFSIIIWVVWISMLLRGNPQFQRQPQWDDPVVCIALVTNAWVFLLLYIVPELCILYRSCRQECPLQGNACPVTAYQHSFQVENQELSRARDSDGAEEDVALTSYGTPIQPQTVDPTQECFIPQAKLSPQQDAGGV
LogEC50 values for the binders below.
value-kind: LogEC50

[
  {
    "binder": "58F9G10-XI (antibody, V domains shown, also called 58F9G10 (chimeric); 58-XI) VH: EVQLQQSGPELVKTGASVKISCKASGYSFTGYYIHWVKQSHGKSLEWIGYISCYNGATSFNQKFKGKATFTVDTSSSTAYMQFNSLTSEDSAVYYCARTELRGPWFAYWGQGTLVTVSA VL: QTVLTQSPAIMSASPGEKVTMTCSASSSVSYMNWYQQKSGTSPKRWIYDTSKLASGVPARFSGSGSGTSYSLTISSMEAEDAATYYCQQWSNNPLTFGAGTKLELK",
    "value-kind": "LogEC50",
    "numeric-value": 0.36
  },
  {
    "binder": "34-XI (antibody, V domains shown, also called 34D3H1 (chimeric)) VH: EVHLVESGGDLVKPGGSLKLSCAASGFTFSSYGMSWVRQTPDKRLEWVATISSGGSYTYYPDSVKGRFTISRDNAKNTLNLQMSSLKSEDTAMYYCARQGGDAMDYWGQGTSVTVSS VL: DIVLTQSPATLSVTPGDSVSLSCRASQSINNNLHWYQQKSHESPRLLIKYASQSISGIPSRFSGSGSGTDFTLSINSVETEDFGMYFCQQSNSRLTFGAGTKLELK",
    "value-kind": "LogEC50",
    "numeric-value": 0.521
  },
  {
    "binder": "38A10E9A11 (chimeric) (antibody, V domains shown, also called 38A9E10A11) VH: QVQLQQSGAELARPGASVKMSCKASGYTFTTYTMHWVKQRPGQGLEWIGYINPSSGYTNYNQKFKDKATLTAGKSSSTAYMQLSSLTSEDSAVYYCASLRSRGYFDYWGRGTTLTVSS VL: DIVMTQSQKFLSTSVGDRVSITCKASQNVGTAVAWYQQKPGQSPKLLIYSASNRYTGVPDRFTGSGSGTDFTLTISNMQSEDLAGYFCQQYSSYPYTFGGGTKLEIK",
    "value-kind": "LogEC50",
    "numeric-value": 0.245
  }
]
